// values below are reported IC50
# test_target: KRAS G13C (Homo sapiens (Human), UniProt P01116+P62937, G13C)
# Sequence (P01116 other isoform, or with tags, fused parts or gaps G13C): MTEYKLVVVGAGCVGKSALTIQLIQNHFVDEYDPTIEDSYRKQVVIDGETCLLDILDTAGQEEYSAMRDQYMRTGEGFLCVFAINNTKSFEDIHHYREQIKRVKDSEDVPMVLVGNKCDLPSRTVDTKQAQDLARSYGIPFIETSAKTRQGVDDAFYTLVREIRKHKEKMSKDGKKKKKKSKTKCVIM
# Sequence (P62937 whole entry): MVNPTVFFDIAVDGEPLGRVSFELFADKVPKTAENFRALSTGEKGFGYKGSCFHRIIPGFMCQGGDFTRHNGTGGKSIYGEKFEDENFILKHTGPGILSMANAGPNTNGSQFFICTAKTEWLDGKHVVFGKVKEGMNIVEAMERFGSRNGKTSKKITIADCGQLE
# procedure_summary: Ras-Raf disruption/FRET/MOA assay (BRAF RBD, Cyclophilin A)
# Assay type: biochemical
# experimental_parameters: read-out: KRAS G13C FRET IC50

Inquiry: Given `CCn1c(-c2cccnc2[C@H](C)OC)c2c3cc(ccc31)-c1csc(n1)C[C@H](NC(=O)[C@@H]1CCO1)C(=O)N1CCC[C@H](N1)C(=O)OCC(C)(C)C2` , state its recorded IC50.
Reply text: 100 to 1000 nM

Inquiry: Follow-up item: `CCn1c(-c2cccnc2[C@H](C)OC)c2c3cc(ccc31)-c1cc(O)cc(c1)C[C@H](NC(=O)[C@H](C(C)C)N(C)C(=O)[C@H]1CC[C@@H](C(N)=O)O1)C(=O)N1CCC[C@H](N1)C(=O)OCC(C)(C)C2`
Reply text: 10 to 100 nM

Inquiry: Also, `CCn1c(-c2cccnc2[C@H](C)OC)c2c3cc(ccc31)-c1csc(n1)C[C@H](NC(=O)[C@H](C(C)C)N(C)C(=O)N1CC([C@@H](CO)OC)C1)C(=O)N1CCC[C@H](N1)C(=O)OCC(C)(C)C2` please.
Reply text: 100 to 1000 nM
